# target: HLA-DR1 (human)
# assay.name: fluorescence polarization competition; displaces 25 nM fluorescently-labeled polypeptide from 500 nM HLA-DR1
readout.label: pIC50
The read-out pIC50 is expressed as -log10 of concentration in moles per litre.

Fill in: pIC50 of MGPKGRTVIIEQSLGSPKVTK (also called ALP21) [APL21] is ___ 5.38

Fill in: pIC50 of RSFALASSETGVG [APL13] is ___ 5.30

Fill in: pIC50 of SIDLKDKKYKNIGAKLVQLVANNTNEEA [APL20] is ___ 5.41

Fill in: pIC50 of IWYIQCFGCETHAML [APL8] is ___ 5.26

Fill in: pIC50 of IWYISCFGCETHAML [APL9] is ___ 5.29

Fill in: pIC50 of IWYINCFACETHAML [APL11] is ___ 5.40

Fill in: pIC50 of RSFTLASSATGVG [APL17] is ___ 5.45

Fill in: pIC50 of RSFTAASSETGVG [APL14] is ___ 5.18

Fill in: pIC50 of RSFTLASSEAGVG [APL18] is ___ 5.31
